Task for the reader: assign each of the following compounds its reported IC50.
Where a name gives a salt, the structure may show the parent alone.
Write the value in nM as a bare number.

Result for O=C(CCN1CCN(Cc2cccc([N+](=O)[O-])c2)CC1)c1cc2c3c(c1)CCN3C(=O)CC2 , tested on Acetylcholinesterase (Rattus norvegicus, UniProt P37136), IC50: 29.3

Result for O=C(CCC1CCN(Cc2cccc(O)c2)CC1)c1cc2c3c(c1)CCN3C(=O)CC2 , tested on Acetylcholinesterase (Rattus norvegicus, UniProt P37136), IC50: 1.12

Result for O=C(CCN1CCN(Cc2cccc(Cl)c2)CC1)c1cc2c3c(c1)CCN3C(=O)CC2 , tested on Acetylcholinesterase (Rattus norvegicus, UniProt P37136), IC50: 6.2

Result for O=C(CCC1CCN(Cc2ccccc2Cl)CC1)c1cc2c3c(c1)CCN3C(=O)CC2 , tested on Acetylcholinesterase (Rattus norvegicus, UniProt P37136), IC50: 0.54

Result for CN1c2ccc(C(=O)CCC3CCN(Cc4ccccc4)CC3)cc2C2CCCCC21 (stereo not drawn) , tested on Acetylcholinesterase (Rattus norvegicus, UniProt P37136), IC50: 136

Result for Cc1ccc(CN2CCC(CCC(=O)c3cc4c5c(c3)CCN5C(=O)CC4)CC2)cc1 , tested on Acetylcholinesterase (Rattus norvegicus, UniProt P37136), IC50: 19.5

Result for COc1ccccc1CN1CCN(CCC(=O)c2cc3c4c(c2)CC(=O)N4CCC3)CC1 , tested on Acetylcholinesterase (Rattus norvegicus, UniProt P37136), IC50: 130

Result for O=CN1Cc2cc(C(=O)CCN3CCN(Cc4ccccc4)CC3)ccc2CCc2ccccc21 , tested on Acetylcholinesterase (Rattus norvegicus, UniProt P37136), IC50: 96.8

Result for Cc1ccc(C)c(CN2CCN(CCC(=O)c3cc4c5c(c3)CCN5C(=O)CC4)CC2)c1 , tested on Acetylcholinesterase (Rattus norvegicus, UniProt P37136), IC50: 188

Result for O=C(CCN1CCN(Cc2ccccc2Cl)CC1)c1cc2c3c(c1)CC(=O)N3CCC2 , tested on Acetylcholinesterase (Rattus norvegicus, UniProt P37136), IC50: 10.9

Result for O=C(CCC1CCN(Cc2ccccc2)CC1)c1ccc2c3c1CCCC3CN2 (stereo not drawn) [compound 4, dihydrochloride] , tested on Acetylcholinesterase (Rattus norvegicus, UniProt P37136), IC50: 91.8

Result for O=C(CCN1CCN(Cc2ccccc2F)CC1)c1cc2c3c(c1)CC(=O)N3CCC2 , tested on Acetylcholinesterase (Rattus norvegicus, UniProt P37136), IC50: 18.9

Result for O=CN1Cc2cc(C(=O)CCN3CCN(Cc4ccccc4)CC3)ccc2Cc2ccccc21 , tested on Acetylcholinesterase (Rattus norvegicus, UniProt P37136), IC50: 33

Result for COc1ccc(CN2Cc3ccccc3-c3ccc(C(=O)CCN4CCN(Cc5ccccc5)CC4)cc3C2)cc1 , tested on Acetylcholinesterase (Rattus norvegicus, UniProt P37136), IC50: 20

Result for O=C(CCC1CCN(Cc2cccc(Cl)c2)CC1)c1cc2c3c(c1)CCN3C(=O)CC2 , tested on Acetylcholinesterase (Rattus norvegicus, UniProt P37136), IC50: 0.065

Result for O=C(CCC1CCN(Cc2ccc(Cl)cc2)CC1)c1cc2c3c(c1)CCN3C(=O)CC2 , tested on Acetylcholinesterase (Rattus norvegicus, UniProt P37136), IC50: 59.9

Result for O=C(CCC1CCN(Cc2ccc(O)cc2)CC1)c1cc2c3c(c1)CCN3C(=O)CC2 , tested on Acetylcholinesterase (Rattus norvegicus, UniProt P37136), IC50: 0.078

Result for O=C(CCC1CCN(Cc2ccccc2)CC1)c1ccc2c3c(cccc13)CN(Cc1ccccc1)C2 , tested on Acetylcholinesterase (Rattus norvegicus, UniProt P37136), IC50: 184

* * *

Task for the reader: assign each of the following compounds its reported pIC50.
STUDY_SYSTEM: Acetylcholinesterase (Rattus norvegicus, UniProt P37136)
Construct: Using the S1 fraction of a male Wistar rat cerebral cortex homogenate as a source of cholinesterase; from tissue; host or cells: male Wistar rat cerebral cortex homogenate, S1 fraction
Sequence (P37136 32-614): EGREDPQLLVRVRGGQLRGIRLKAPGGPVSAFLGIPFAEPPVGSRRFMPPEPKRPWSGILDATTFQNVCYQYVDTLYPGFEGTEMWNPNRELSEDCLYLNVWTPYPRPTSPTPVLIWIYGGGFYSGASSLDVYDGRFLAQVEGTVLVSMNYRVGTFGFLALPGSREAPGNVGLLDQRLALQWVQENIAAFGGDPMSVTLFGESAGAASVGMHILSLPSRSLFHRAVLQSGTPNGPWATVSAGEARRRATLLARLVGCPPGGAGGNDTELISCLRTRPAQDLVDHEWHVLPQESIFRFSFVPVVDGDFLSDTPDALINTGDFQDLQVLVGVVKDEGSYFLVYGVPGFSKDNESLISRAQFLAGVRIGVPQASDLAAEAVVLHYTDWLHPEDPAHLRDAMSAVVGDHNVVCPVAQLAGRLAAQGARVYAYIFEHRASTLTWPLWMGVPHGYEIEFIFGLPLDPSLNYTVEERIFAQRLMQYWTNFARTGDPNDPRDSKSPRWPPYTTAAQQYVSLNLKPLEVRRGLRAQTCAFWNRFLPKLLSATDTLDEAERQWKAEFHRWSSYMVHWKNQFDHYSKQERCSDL
METHOD_NOTES: cholinesterase inhibitory activity using (acetyl-[^3 H])-acetylcholine, S1 fraction of rat cerebral cortex homogenate
Assay type: biochemical, male Wistar rat
CONDITION_DETAILS: 30 min incubation
The meaning of pIC50 here: minus log10 of the concentration in molar units.

Query O=C(CCN1CCN(Cc2ccccc2Cl)CC1)c1cc2c3c(c1)CCN3C(=O)CC2 [30-21] yields pIC50 of 8.44

Query O=C(CCN1CCN(Cc2ccccc2)CC1)c1cc2c3c(c1)CC(=O)N3CCC2 [17-2] yields pIC50 of 8.12

Query COc1ccccc1CN1CCC(CCC(=O)c2cc3c4c(c2)CCN4C(=O)CC3)CC1 [30-48] yields pIC50 of 7.77

Query N#Cc1ccccc1CN1CCC(CCC(=O)c2cc3c4c(c2)CCN4C(=O)CC3)CC1 [30-61] yields pIC50 of 7.81

Query Cc1cccc(CN2CCN(CCC(=O)c3cc4c5c(c3)CCN5C(=O)CC4)CC2)c1 [30-19] yields pIC50 of 7.92

Query O=C(CCN1CCN(Cc2cccc([N+](=O)[O-])c2)CC1)c1cc2c3c(c1)CC(=O)N3CCC2 [30-35] yields pIC50 of 7.17

Query Cc1cccc(CN2CCN(CCC(=O)c3cc4c5c(c3)CC(=O)N5CCC4)CC2)c1 [30-1] yields pIC50 of 7.54

Query Cc1ccccc1CN1CCC(CCC(=O)c2cc3c4c(c2)CCN4C(=O)CC3)CC1 [30-45] yields pIC50 of 9.52
